B1: Osa-1-4 twister ribozyme (parent)
chain: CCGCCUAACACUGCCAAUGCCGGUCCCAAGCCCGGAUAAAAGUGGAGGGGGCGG

variants of: B1; test: self-cleavage, relative activity (ratio to wild type); higher = more cleavage; co-transcriptional
Endpoint: self-cleavage
Could you keep your reply to the number by itself?

Look up self-cleavage: G44C U37A
0.71

Look up self-cleavage: A7C C21A
0.06

Look up self-cleavage: A40G G49C
0.07

Look up self-cleavage: G19A G49C
0.09

Look up self-cleavage: A38G G42C
0.23

Look up self-cleavage: A38G U18A
0.92

Look up self-cleavage: A41G C32G
0.13

Look up self-cleavage: A41U G22A
1

Look up self-cleavage: "C14G"
0.21

Look up self-cleavage: A16U G54A
0.93

Look up self-cleavage: A8G G49A
0.08

Look up self-cleavage: G53U G54U
0.46

Look up self-cleavage: A17U G13A
0.14

Look up self-cleavage: A16U C33G
0.04

Look up self-cleavage: A8U G35C
0.08

Look up self-cleavage: A46U U43C
0.06
